System: PC-3 prostate
Assay name: NCI-60 one-dose screen, 48 h (100 = growth as untreated, 0 = no growth, -100 = all killed)
Study conditions: 10 µM unless noted
Compounds without any hit were thinned out: in the full panel of roughly 83,000, 20% have a hit.
Measurement type: growth (%)
Numbers only here, please. The scale is %.

The cases that follow already have their growth on record.
[[record]]
compound = "COc1cc2nc(-c3ccc(C(F)(F)F)cc3)cc(OCCCNCC3CCCO3)c2cc1OC (centres undefined)"
unit_label = "%"
recorded_result = 45.4

[[record]]
compound = "COc1cc(/C=C/C(=O)c2cc(OC)c(OC)c(OC)c2)ccc1OCc1ccccc1"
unit_label = "%"
recorded_result = 40.1

[[record]]
compound = "C#C[C@]1(O)CC[C@H]2[C@@H]3CC=C4c5sc(-c6ccc(F)cn6)nc5CC[C@]4(C)[C@H]3CC[C@@]21C"
unit_label = "%"
recorded_result = 24.2

[[record]]
compound = "CCN(CC)c1ccc(C=O)c(OCc2cn(CC(=O)Nc3ccc(Cl)cc3)nn2)c1"
unit_label = "%"
recorded_result = 56.2

[[record]]
compound = "C=CCn1c(SCC(=O)c2ccc(Br)cc2)nnc1-c1c[nH]c2ccccc12"
unit_label = "%"
recorded_result = 78.3


growth for `Clc1ccc2c(NCCCn3ccnc3)c3oc4ccccc4c3nc2c1` ?
47.9

growth for CCN1C(=S)N(CC)C2C1N=C(SC)N2/N=C/C=C/c1ccccc1[N+](=O)[O-] (centres undefined) ?
85

growth for `CN(C)c1ccc(-c2c(NC(C)(C)C)nc3c(OCCc4ccccc4)cccn23)cc1` ?
0.316

growth for `COc1cc(/C=C/C(=O)c2ccccc2)ccc1Oc1nc(NCCO)nc(N2CCOCC2)n1` ?
84.9

growth for `O=C(N/N=C/c1ccc([N+](=O)[O-])s1)c1[nH]c2ccc(Br)cc2c1-c1ccccc1` ?
26.5

growth for Cc1cc(C(NC(=O)CCCCCNc2cccc3c2C(=O)N(C2CCC(=O)NC2=O)C3=O)c2cccnc2)c(O)c2ncccc12 (centres undefined) ?
6.73

growth for `O=C1Nc2cc(Cl)ccc2/C1=C\c1ccc(OCc2ccc([N+](=O)[O-])cc2)cc1` ?
59.4

growth for `CCOC(=O)c1sc(N)c(C(=O)OCC)c1C` ?
54.4

growth for `O=C1Nc2ccc(Cl)cc2/C1=C/c1ccc(OCC(=O)c2ccc(Br)cc2)cc1` ?
81.8

growth for `CS(=O)(=O)c1ccc(-c2nc3ccccn3c2/C=N/Nc2nc(-c3ccc(Cl)cc3)cs2)cc1` ?
102

growth for `CS(=O)(=O)c1ccc(-n2cc(/C=C/C(=O)c3ccc(NC(=O)CO[N+](=O)[O-])cc3)c(-c3ccc(Cl)cc3)n2)cc1` ?
96.2

growth for `O=C(CN1C(=O)/C(=C/c2ccccc2)SC1=S)N1CCOCC1` ?
108

growth for `c1ccc(CNc2ncnc3ccc(-c4cnc5[nH]ncc5c4)cc23)cc1` ?
70.3

growth for `CCOC(=O)c1c(Nc2ccccc2)nn2c(N)c(C#N)c(-c3ccccc3)nc12` ?
76.5

====

System: LOX IMVI melanoma
Assay name: NCI-60 one-dose screen, 48 h (100 = growth as untreated, 0 = no growth, -100 = all killed)
Study conditions: 10 µM unless noted
About 83,000 compounds went through this panel and 20% of them were active in at least one assay; those are over-represented in the sample as a whole.
# growth per entry
Numbers only here, please. The scale is %.

[[record]]
compound = "N#Cc1nc(-c2ccccc2)oc1S(N)(=O)=O"
recorded_result = 10.5

[[record]]
compound = "CC(=O)Oc1ccccc1C(=O)Nc1ccc(C(=O)/C=C/c2ccncc2)cc1"
recorded_result = -73.6

[[record]]
compound = "C[C@@H]1CN(c2ccc3ncc(C#Cc4cncc(C(=O)Nc5ccc(CN6CCN(C)CC6)c(C(F)(F)F)c5)c4)n3n2)C[C@H](C)O1"
recorded_result = -87.7

[[record]]
compound = "COc1cc2nc(-c3ccc(C)cc3)cc(OCCCNCC3CCCO3)c2cc1OC (centres undefined)"
recorded_result = -32.2

[[record]]
compound = "COc1ccccc1C(=O)CSc1nc(Nc2ccc(S(N)(=O)=O)cc2)c2ccccc2n1"
recorded_result = 16.1

[[record]]
compound = "[Cl][Ru].c1ccc(-c2cc(-c3ccccn3)nc(-c3ccccn3)c2)cc1.c1ccc(-c2ccnc3c2ccc2c(-c4ccccc4)ccnc23)cc1"
recorded_result = -71.4

[[record]]
compound = "COc1ccc(COc2ccc(/C=C3/C(=O)Nc4cc(Cl)ccc43)cc2)cc1"
recorded_result = 94.8

[[record]]
compound = "Cn1cc(-c2cc(N)n3nc(-c4cn(C)c5ccc(Br)cc45)cc3n2)c2cc(Br)ccc21"
recorded_result = 6.31


growth for `COc1cccc(-c2nn(-c3ccccc3)cc2-c2ccnc(N3CCN(C(=O)c4ccccc4)CC3)c2)c1` ?
87.5

From: PubChem BioAssay (NCI)
